Hey, just so you know, these numbers are from paper PMC9860392.

Biological target: T1, Twinkle CTD (C-terminal domain plus linker) (Homo sapiens, UniProt Q96RR1 360-684)
T1 sequence: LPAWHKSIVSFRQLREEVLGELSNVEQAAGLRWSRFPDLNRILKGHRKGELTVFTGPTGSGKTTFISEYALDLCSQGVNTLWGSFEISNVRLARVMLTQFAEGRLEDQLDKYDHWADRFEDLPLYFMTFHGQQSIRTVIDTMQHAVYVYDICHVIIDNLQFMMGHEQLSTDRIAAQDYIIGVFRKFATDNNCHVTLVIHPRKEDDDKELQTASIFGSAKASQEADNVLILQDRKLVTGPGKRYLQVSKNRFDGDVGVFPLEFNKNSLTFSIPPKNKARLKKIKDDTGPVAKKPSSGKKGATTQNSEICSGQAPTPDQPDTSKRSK
Test: fluorescence anisotropy; no NaCl added; 50 mM Tris acetate pH 7.5, 10% glycerol, 0.05% Tween-20, 0.5 mM DTT, 0 or 50 mM NaCl; 2.5 nM DNA; no Mg2+ or nucleotide listed; temperature not stated
Settings: protein: recombinant; tags: SUMO tag removed (ULP1); chain copies: 6; label: 3' fluorescein-T; single strand
Threshold-based label: Kd under 5 nM gives Fulfilled, Kd not under 5 nM gives Not fulfilled.

> print(dat)
                                     binder  class.assignment
1    ATAACTCTTGAACACT (ssDNA) [16 nt ssDNA]     Not fulfilled
2  TGCTATAACTCTTGAACACT (ssDNA) [20 nt ssDNA]         Fulfilled
3  TGTGTTAGTTGGGGGGTGACTGTTAAAAGT (ssDNA) [30 nt ssDNA]         Fulfilled
4      AACTCTTGAACACT (ssDNA) [14 nt ssDNA]     Not fulfilled
5        CTCTTGAACACT (ssDNA) [12 nt ssDNA]     Not fulfilled
6             TGAACACT (ssDNA) [8 nt ssDNA]     Not fulfilled
